Where do these numbers come from? They come from PubChem BioAssay (EPA / NIEHS).

# Read-out: Cytochrome P450 2B6 (Homo sapiens) (UniProt P20813)
# ASSAY_SUMMARY: CLD_CYP2B6_6hr: CellzDirect (CLD) Gene Expression Assay for xenobiotic metabolism (CYP2B6) at 6 hours (AID 2283677);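 further: actives raise CYP2B6 transcript above DMSO baseline so AC50 marks an inducer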
Results filed as inconclusive are left out. Calls of active or inactive are those of the source. How the source made its calls: active means hit-call score of the fitted dose curve at least 0.9, where 1 is the maximum; inconclusive means response in the unintended direction; inactive means score below 0.9.
Possible outcomes: 1 for active, 0 for inactive

- COMPOUND: "CC1(C)C(C(=O)OC(C#N)c2cccc(Oc3ccccc3)c2)C1(C)C (stereo unspecified)"
  LABEL_CLASS: 1
- COMPOUND: "C=C(C)CN(CC)c1c([N+](=O)[O-])cc(C(F)(F)F)cc1[N+](=O)[O-]"
  LABEL_CLASS: 0
- COMPOUND: "CC(C)C1(C)N=C(c2ncccc2C(=O)O)NC1=O (stereo unspecified)"
  LABEL_CLASS: 1
- COMPOUND: "COc1cc(Cl)c(OC)cc1Cl"
  LABEL_CLASS: 1
- COMPOUND: "COP(=O)(OC)O/C(C)=C/C(=O)N(C)C"
  LABEL_CLASS: 0
- COMPOUND: "Cc1cc(C)nc(Nc2ccccc2)n1"
  LABEL_CLASS: 1
- COMPOUND: "CCCCC(O)(Cn1cncn1)c1ccc(Cl)cc1Cl (stereo unspecified)"
  LABEL_CLASS: 1
- COMPOUND: "Clc1nc(Cl)nc(Nc2ccccc2Cl)n1"
  LABEL_CLASS: 0
- COMPOUND: "CCCC(=NOCC)C1=C(O)CC(CC(C)SCC)CC1=O (stereo unspecified)"
  LABEL_CLASS: 0
- COMPOUND: "C=CCOC(=O)C(C)(C)OC(=O)c1cc(-n2c(=O)cc(C(F)(F)F)n(C)c2=O)ccc1Cl"
  LABEL_CLASS: 1
- COMPOUND: "CCN(CC)c1nc(C)cc(OP(=S)(OC)OC)n1"
  LABEL_CLASS: 1
- COMPOUND: "CCC(C)n1c(=O)[nH]c(C)c(Br)c1=O (stereo unspecified)"
  LABEL_CLASS: 1
- COMPOUND: "CSC(=O)c1c(C(F)F)nc(C(F)(F)F)c(C(=O)SC)c1CC(C)C"
  LABEL_CLASS: 1
- COMPOUND: "COC(=O)c1c(C(F)F)nc(C(F)(F)F)c(C2=NCCS2)c1CC(C)C"
  LABEL_CLASS: 1
- COMPOUND: "CC1(C)CON(Cc2ccccc2Cl)C1=O"
  LABEL_CLASS: 1
- COMPOUND: "CCOc1nc(F)cc2nc(S(=O)(=O)Nc3c(Cl)cccc3Cl)nn12"
  LABEL_CLASS: 1
- COMPOUND: "COCC(=O)N(c1c(C)cccc1C)C(C)C(=O)OC (stereo unspecified)"
  LABEL_CLASS: 1
- COMPOUND: "OC(c1ccc(Cl)cc1)(c1ccc(Cl)cc1)C(Cl)(Cl)Cl"
  LABEL_CLASS: 1
- COMPOUND: "CCOP(=O)(OCC)Oc1nc(Cl)c(Cl)cc1Cl"
  LABEL_CLASS: 1
- COMPOUND: "COC(=O)N(C(=O)N1CO[C@@]2(C(=O)OC)Cc3cc(Cl)ccc3C2=N1)c1ccc(OC(F)(F)F)cc1"
  LABEL_CLASS: 1
- COMPOUND: "Cc1cnc(C2=NC(C)(C(C)C)C(=O)N2)c(C(=O)O)c1 (stereo unspecified)"
  LABEL_CLASS: 0
- COMPOUND: "CCOP(=S)(OCC)Oc1nc(Cl)n(C(C)C)n1"
  LABEL_CLASS: 1
- COMPOUND: "CCCCC(C#N)(Cn1cncn1)c1ccc(Cl)cc1 (stereo unspecified)"
  LABEL_CLASS: 1
- COMPOUND: "CNC(=O)N(C)c1nnc(C(C)(C)C)s1"
  LABEL_CLASS: 0
- COMPOUND: "CNC(=O)Oc1cccc2ccccc12"
  LABEL_CLASS: 1
- COMPOUND: "N#CN=C1SCCN1Cc1ccc(Cl)nc1"
  LABEL_CLASS: 0

---

# Read-out: MYC, MYC (gene 4609)
# ASSAY_SUMMARY: LTEA_HepaRG_MYC: Life Technologies and Expression Analysis (LTEA) Assay for MYC using HepaRG (AID 2283518)
# STATED_CONDITIONS: mRNA level, 48 h; actives raise or lower the signal
The source made the active and inactive calls. Rule for the calls: active = hit-call score of the fitted dose curve at least 0.9, where 1 is the maximum; inactive = score below 0.9.
Labels: T = active, F = inactive

- COMPOUND: "CCOc1nc(C(Cl)(Cl)Cl)ns1"
  LABEL_CLASS: "T"
- COMPOUND: "CCC(C)n1c(=O)[nH]c(C)c(Br)c1=O (stereo unspecified)"
  LABEL_CLASS: "T"
- COMPOUND: "CCCCC(C#N)(Cn1cncn1)c1ccc(Cl)cc1 (stereo unspecified)"
  LABEL_CLASS: "F"
- COMPOUND: "COP(=O)(OC)O/C(C)=C/C(=O)N(C)C"
  LABEL_CLASS: "F"
- COMPOUND: "O=c1n(Cl)c(=O)n(Cl)c(=O)n1Cl"
  LABEL_CLASS: "F"
- COMPOUND: "CCCCOCN(C(=O)CCl)c1c(CC)cccc1CC"
  LABEL_CLASS: "F"

---

# Read-out: Tumor necrosis factor (Homo sapiens) (UniProt P01375)
# Sequence (P01375 whole entry, looked up): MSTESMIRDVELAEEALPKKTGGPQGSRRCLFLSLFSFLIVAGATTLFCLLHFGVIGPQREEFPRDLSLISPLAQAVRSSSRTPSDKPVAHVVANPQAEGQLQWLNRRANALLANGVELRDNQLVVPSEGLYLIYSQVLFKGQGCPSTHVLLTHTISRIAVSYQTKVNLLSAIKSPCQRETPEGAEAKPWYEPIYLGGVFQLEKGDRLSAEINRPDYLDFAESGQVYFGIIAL
# ASSAY_SUMMARY: BSK_LPS_TNFa: BioMAP Diversity Plus: LPS Assay for Tumour Necrosis Factor alpha (TNFa) Biomarker Activity (AID 2283085)
# STATED_CONDITIONS: primary human HUVEC with PBMC; actives raise or lower the signal
# Protocol: BSK_LPS is a cell-based, multiplexed-readout assay that uses umbilical vein endothelium and peripheral blood mononuclear cells, a human vascular primary cell co-culture, with measurements taken at 24 hours after chemical dosing in a 96-well plate.BSK_LPS_TNFa is an assay component measured in the BSK_LPS assay. It measures TNF-a antibody related to regulation of gene expression using ELISA technology.Data from the assay component BSK_LPS_TNFa was analyzed into 1 assay endpoint. […]
The source made the active and inactive calls. Rule for the calls: active = hit-call score of the fitted dose curve at least 0.9, where 1 is the maximum; inactive = score below 0.9.
Outcomes: true (1) (active), false (0) (inactive)

- MOLECULE: "CCOc1nc(F)cc2nc(S(=O)(=O)Nc3c(Cl)cccc3Cl)nn12"
  LABEL_CLASS: "false (0)"
- MOLECULE: "COP(=S)(OC)Oc1ccc([N+](=O)[O-])c(C)c1"
  LABEL_CLASS: "false (0)"
- MOLECULE: "CN=C=S"
  LABEL_CLASS: "false (0)"
- MOLECULE: "CCOC(=O)C(C)OC(=O)c1cc(Oc2ccc(C(F)(F)F)cc2Cl)ccc1[N+](=O)[O-] (stereo unspecified)"
  LABEL_CLASS: "true (1)"
- MOLECULE: "O=P(O)(O)CCCl"
  LABEL_CLASS: "false (0)"
- MOLECULE: "C=C(C)CN(CC)c1c([N+](=O)[O-])cc(C(F)(F)F)cc1[N+](=O)[O-]"
  LABEL_CLASS: "true (1)"
- MOLECULE: "N#CN=C1SCCN1Cc1ccc(Cl)nc1"
  LABEL_CLASS: "false (0)"
- MOLECULE: "CC1(C)CCC(=Cc2ccc(Cl)cc2)C1(O)Cn1cncn1 (stereo unspecified)"
  LABEL_CLASS: "false (0)"
- MOLECULE: "Cc1cc(C)nc(Nc2ccccc2)n1"
  LABEL_CLASS: "false (0)"
- MOLECULE: "O=c1n(Cl)c(=O)n(Cl)c(=O)n1Cl"
  LABEL_CLASS: "false (0)"
- MOLECULE: "CS(=O)(=O)c1cc(C(F)(F)F)ccc1C(=O)c1cnoc1C1CC1"
  LABEL_CLASS: "false (0)"
- MOLECULE: "CNC(=O)N(C)c1nnc(C(C)(C)C)s1"
  LABEL_CLASS: "false (0)"
- MOLECULE: "Clc1cccc(C(Cl)(Cl)Cl)n1"
  LABEL_CLASS: "false (0)"
- MOLECULE: "CCCCC(O)(Cn1cncn1)c1ccc(Cl)cc1Cl (stereo unspecified)"
  LABEL_CLASS: "false (0)"
- MOLECULE: "CC1(C)C(C=C(Cl)Cl)C1C(=O)OC(C#N)c1cccc(Oc2ccccc2)c1 (stereo unspecified)"
  LABEL_CLASS: "true (1)"
- MOLECULE: "CCN(CC)C(=O)C(C)Oc1cccc2ccccc12 (stereo unspecified)"
  LABEL_CLASS: "false (0)"
- MOLECULE: "CNC(=O)Oc1cccc2ccccc12"
  LABEL_CLASS: "false (0)"
- MOLECULE: "CCSC(=O)N1CCCCCC1"
  LABEL_CLASS: "false (0)"
- MOLECULE: "CS(=O)(=O)c1ccc(C(=O)C2C(=O)CCCC2=O)c([N+](=O)[O-])c1"
  LABEL_CLASS: "false (0)"
- MOLECULE: "CC(C)N1C(=O)N(c2ccccc2)CSC1=NC(C)(C)C"
  LABEL_CLASS: "true (1)"
- MOLECULE: "N#Cc1c[nH]cc1-c1cccc2c1OC(F)(F)O2"
  LABEL_CLASS: "true (1)"
